Tested on: Staphylococcus aureus
assayExplanation: The compound was evaluated for activity against strain Micrococcus aureus
Type: functional
Set-up: unit not given here
// reported -Log C for each item listed

{"compound": "COC1/C=C/OC2(C)Oc3c(C)c(O)c4c(O)c(cc(OCC(=O)N(C)CCO)c4c3C2=O)NC(=O)/C(C)=C\\C=C\\C(C)C(O)C(C)C(O)C(C)C(OC(C)=O)C1C (configuration not stated)", "readoutName": "-Log C", "result": 6.93}
{"compound": "COC1/C=C/OC2(C)Oc3c(C)c(O)c4c(O)c(cc(OCC(=O)N5C(C)COCC5C)c4c3C2=O)NC(=O)/C(C)=C\\C=C\\C(C)C(O)C(C)C(O)C(C)C(OC(C)=O)C1C (configuration not stated)", "readoutName": "-Log C", "result": 7.93}

Give the reported value of -Log C for this record: COC1/C=C/OC2(C)Oc3c(C)c(O)c4c(O)c(cc(OCC(=O)Nc5ccc(Cl)cc5)c4c3C2=O)NC(=O)/C(C)=C\C=C\C(C)C(O)C(C)C(O)C(C)C(OC(C)=O)C1C (configuration not stated) 6.54

Tell me measured -Log C for COC1/C=C/OC2(C)Oc3c(C)c(O)c4c(O)c(cc(OCC(=O)N(CC(C)C)CC(C)C)c4c3C2=O)NC(=O)/C(C)=C\C=C\C(C)C(O)C(C)C(O)C(C)C(OC(C)=O)C1C (configuration not stated) please. 8.86

# return recorded -Log C for input CCCNC(=O)COc1cc2c(O)c3c(O)c(C)c4c(c13)C(=O)C(C)(O/C=C/C(OC)C(C)C(OC(C)=O)C(C)C(O)C(C)C(O)C(C)/C=C/C=C(/C)C(=O)N2)O4 (configuration not stated) 6.5

Report measured -Log C; entry is COC1/C=C/OC2(C)Oc3c(C)c(O)c4c(O)c(cc(OCC(=O)N5C(C)CCC5C)c4c3C2=O)NC(=O)/C(C)=C\C=C\C(C)C(O)C(C)C(O)C(C)C(OC(C)=O)C1C (configuration not stated) 8.22

Return -Log C (reported value) for this compound: COC1/C=C/OC2(C)Oc3c(C)c(O)c4c(O)c(cc(OCC(=O)N(C)C(C)(C)C)c4c3C2=O)NC(=O)/C(C)=C\C=C\C(C)C(O)C(C)C(O)C(C)C(OC(C)=O)C1C (configuration not stated) 8.62

Respond only with -Log C recorded for COC1/C=C/OC2(C)Oc3c(C)c(O)c4c(O)c(cc(OCC(=O)N(c5ccccc5)c5ccccc5)c4c3C2=O)NC(=O)/C(C)=C\C=C\C(C)C(O)C(C)C(O)C(C)C(OC(C)=O)C1C (configuration not stated) 8.65

Output -Log C of COC1/C=C/OC2(C)Oc3c(C)c(O)c4c(O)c(cc(OCC(=O)N(Cc5ccccc5)Cc5ccccc5)c4c3C2=O)NC(=O)/C(C)=C\C=C\C(C)C(O)C(C)C(O)C(C)C(OC(C)=O)C1C (configuration not stated) 8.49

Determine its reported -Log C: COC1/C=C/OC2(C)Oc3c(C)c(O)c4c(O)c(cc(OCC(N)=O)c4c3C2=O)NC(=O)/C(C)=C\C=C\C(C)C(O)C(C)C(O)C(C)C(OC(C)=O)C1C (configuration not stated) 5.7

Determine its reported -Log C: C#CCN(CCC)C(=O)COc1cc2c(O)c3c(O)c(C)c4c(c13)C(=O)C(C)(O/C=C/C(OC)C(C)C(OC(C)=O)C(C)C(O)C(C)C(O)C(C)/C=C/C=C(/C)C(=O)N2)O4 (configuration not stated) 8.44

Supply reported -Log C belonging to this compound: CCCCN(C)C(=O)COc1cc2c(O)c3c(O)c(C)c4c(c13)C(=O)C(C)(O/C=C/C(OC)C(C)C(OC(C)=O)C(C)C(O)C(C)C(O)C(C)/C=C/C=C(/C)C(=O)N2)O4 (configuration not stated) 8.44

Assign -Log C to the following record: C=CCN(CC=C)C(=O)COc1cc2c(O)c3c(O)c(C)c4c(c13)C(=O)C(C)(O/C=C/C(OC)C(C)C(OC(C)=O)C(C)C(O)C(C)C(O)C(C)/C=C/C=C(/C)C(=O)N2)O4 (configuration not stated) 8.22

Identify -Log C associated with the compound CCCN(CCC)C(=O)COc1cc2c(O)c3c(O)c(C)c4c(c13)C(=O)C(C)(O/C=C/C(OC)C(C)C(OC(C)=O)C(C)C(O)C(C)C(O)C(C)/C=C/C=C(/C)C(=O)N2)O4 (configuration not stated) 8.15

Please report -Log C for the following compound: CCN(C)C(=O)COc1cc2c(O)c3c(O)c(C)c4c(c13)C(=O)C(C)(O/C=C/C(OC)C(C)C(OC(C)=O)C(C)C(O)C(C)C(O)C(C)/C=C/C=C(/C)C(=O)N2)O4 (configuration not stated) 7.95

Query -Log C for CCCN(C)C(=O)COc1cc2c(O)c3c(O)c(C)c4c(c13)C(=O)C(C)(O/C=C/C(OC)C(C)C(OC(C)=O)C(C)C(O)C(C)C(O)C(C)/C=C/C=C(/C)C(=O)N2)O4 (configuration not stated) 7.91

Identify the reported -Log C for the following entry. COC1/C=C/OC2(C)Oc3c(C)c(O)c4c(O)c(cc(OCC(=O)Nc5ccccc5)c4c3C2=O)NC(=O)/C(C)=C\C=C\C(C)C(O)C(C)C(O)C(C)C(OC(C)=O)C1C (configuration not stated) 6.92

Supply recorded -Log C for CNC(=O)COc1cc2c(O)c3c(O)c(C)c4c(c13)C(=O)C(C)(O/C=C/C(OC)C(C)C(OC(C)=O)C(C)C(O)C(C)C(O)C(C)/C=C/C=C(/C)C(=O)N2)O4 (configuration not stated) here. 6.68

Quote -Log C reported for CCCCN(CC)C(=O)COc1cc2c(O)c3c(O)c(C)c4c(c13)C(=O)C(C)(O/C=C/C(OC)C(C)C(OC(C)=O)C(C)C(O)C(C)C(O)C(C)/C=C/C=C(/C)C(=O)N2)O4 (configuration not stated) please. 8.62

Please give the documented -Log C of COC1/C=C/OC2(C)Oc3c(C)c(O)c4c(O)c(cc(OCC(=O)N(CCCl)CCCl)c4c3C2=O)NC(=O)/C(C)=C\C=C\C(C)C(O)C(C)C(O)C(C)C(OC(C)=O)C1C (configuration not stated) 7.24

Query -Log C for COC1/C=C/OC2(C)Oc3c(C)c(O)c4c(O)c(cc(OCC(=O)N5CCC(C)CC5)c4c3C2=O)NC(=O)/C(C)=C\C=C\C(C)C(O)C(C)C(O)C(C)C(OC(C)=O)C1C (configuration not stated) 8.22

// fetch -Log C given entry COC1/C=C/OC2(C)Oc3c(C)c(O)c4c(O)c(cc(OCC(=O)N(C)CCC#N)c4c3C2=O)NC(=O)/C(C)=C\C=C\C(C)C(O)C(C)C(O)C(C)C(OC(C)=O)C1C (configuration not stated) 6.97
